- Tested on: Mus musculus
- test.method.notes: Neurotoxicity in Kunming mouse assessed as supination at 5 to 500 mg/kg, ip observed continuously for first 2 hrs, intermittently for next 24 hrs and occasionally thereafter for 14 days
- Assay type: toxicity, organism-based
- measurement.conditions: in vivo
measure: Activity

Example results:
CCCCn1c2cc(OCCCCn3c4ccccc4c4ccnc(C)c43)ccc2c2ccnc(C)c21.Cl | Non-Toxic
Cc1nccc2c3ccc(OCCCCn4c5ccccc5c5ccnc(-c6cccs6)c54)cc3n(CCCc3ccccc3)c12.Cl | Non-Toxic
Cc1nccc2c3ccccc3n(CCCCOc3ccc4c5ccnc(C)c5n(CCCc5ccccc5)c4c3)c12.Cl | Non-Toxic
COc1ccc(-c2nccc3c4ccccc4n(CCCCOc4ccc5c6ccnc(C)c6n(CCCc6ccccc6)c5c4)c23)cc1.Cl | Non-Toxic
COc1ccc2c3ccnc(C)c3n(CCCCOc3ccc4c5ccnc(C)c5n(CCCc5ccccc5)c4c3)c2c1.Cl | Toxic

// moving on: another record for Activity
Problem: Entry Cc1nccc2c3ccc(OCCCCn4c5ccccc5c5ccncc54)cc3n(CCCc3ccccc3)c12.Cl : reported Activity = ?
Result: Non-Toxic

====

- System: Mus musculus
- test.method.notes: Neurotoxicity in Kunming mouse assessed as jumping behavior at 5 to 500 mg/kg, ip observed continuously for first 2 hrs, intermittently for next 24 hrs and occasionally thereafter for 14 days
- Type: toxicity, organism-based
- measurement.conditions: in vivo
measure: Activity

Reference set, count: 5
COc1ccc(-c2nccc3c4ccccc4n(CCCCOc4ccc5c6ccnc(C)c6n(CCCc6ccccc6)c5c4)c23)cc1.Cl | Non-Toxic
Cc1nccc2c3ccc(OCCCCn4c5ccccc5c5ccncc54)cc3n(CCCc3ccccc3)c12.Cl | Non-Toxic
COc1ccc2c3ccnc(C)c3n(CCCCOc3ccc4c5ccnc(C)c5n(CCCc5ccccc5)c4c3)c2c1.Cl | Toxic
CCCCn1c2cc(OCCCCn3c4ccccc4c4ccnc(C)c43)ccc2c2ccnc(C)c21.Cl | Non-Toxic
Cc1nccc2c3ccccc3n(CCCCOc3ccc4c5ccnc(C)c5n(CCCc5ccccc5)c4c3)c12.Cl | Non-Toxic

Proceeding to the next compound to report its Activity.
Problem: Observed Activity on Mus musculus for Cc1nccc2c3ccc(OCCCCn4c5ccccc5c5ccnc(-c6cccs6)c54)cc3n(CCCc3ccccc3)c12.Cl , please.
Result: Non-Toxic

====

- System: MCF7
- test.method.notes: Cytotoxicity against human MCF7 cells
- Type: functional, cell-based
pIC50: −log10 of the molar value.
measure: pIC50

Problem: Given the compound CCCCn1c2cnccc2c2ccc(OCCCCCCOc3ccc4c5ccnc(C)c5n(CCCC)c4c3)cc21 , what is its reported pIC50?
Result: < 4.00

====

- System: Mus musculus
- test.method.notes: Acute toxicity in ip dosed Kunming mouse assessed as death at higher dose up to 4 to 8 hrs
- Assay type: organism-based
- measurement.conditions: in vivo
measure: Activity

Past entries and their recorded results:
Cc1nccc2c3ccccc3n(CCCCOc3ccc4c5ccnc(C)c5n(CCCc5ccccc5)c4c3)c12.Cl | Toxic
Cc1nccc2c3ccc(OCCCCn4c5ccccc5c5ccncc54)cc3n(CCCc3ccccc3)c12.Cl | Toxic
COc1ccc2c3ccnc(C)c3n(CCCCOc3ccc4c5ccnc(C)c5n(CCCc5ccccc5)c4c3)c2c1.Cl | Toxic
CCCCn1c2cc(OCCCCn3c4ccccc4c4ccnc(C)c43)ccc2c2ccnc(C)c21.Cl | Toxic
COc1ccc(-c2nccc3c4ccccc4n(CCCCOc4ccc5c6ccnc(C)c6n(CCCc6ccccc6)c5c4)c23)cc1.Cl | Toxic

Here's the next entry for you.
Problem: Given the entry Cc1nccc2c3ccc(OCCCCn4c5ccccc5c5ccnc(-c6cccs6)c54)cc3n(CCCc3ccccc3)c12.Cl , report its measured Activity.
Result: Toxic

====

- Tested on: SK-OV-3
- test.method.notes: Cytotoxicity against human SKOV3 cells assessed as cell growth inhibition after 24 hrs by MTT assay
- Format: functional, cell-based
- measurement.conditions: SK-OV-3, 24 h
measure: IC50 (µM)
State the answer as a number, implicitly in µM.

Cc1nccc2c3ccc(OCCCCn4c5ccccc5c5ccnc(-c6ccccc6Cl)c54)cc3n(CCCc3ccccc3)c12 | 22.9
CCCCn1c2cc(OCCCCn3c4ccccc4c4ccncc43)ccc2c2ccnc(C)c21 | 17.3
COc1ccc(-c2nccc3c4ccccc4n(CCCCOc4ccc5c6ccnc(C)c6n(CCCc6ccccc6)c5c4)c23)cc1OC | 8.8

Problem: Would you mind telling me what IC50 value was observed for Cc1nccc2c3ccccc3n(CCCCOc3ccc4c5ccnc(C)c5n(CCCc5ccccc5)c4c3)c12.Cl ?
Result: 13.1

Problem: Requested field: IC50. Item: CCCCn1c2cc(OCCCCCn3c4ccccc4c4ccnc(C)c43)ccc2c2ccnc(C)c21
Result: 14.3

Problem: What value of IC50 has been recorded for this entry: Cc1nccc2c3ccc(OCCCCn4c5ccccc5c5ccnc(-c6cccs6)c54)cc3n(CCCc3ccccc3)c12.Cl
Result: 11.2

====

// values below are reported IC50
- Test system: HepG2
- test.method.notes: Cytotoxicity against human HepG2 cells assessed as cell growth inhibition after 24 hrs by MTT assay
- Assay type: functional, cell-based
- measurement.conditions: HepG2, 24 h
The response must be a number in µM with no trailing unit.

Known IC50 results, listed for orientation:
COc1cc(-c2nccc3c4ccccc4n(CCCCOc4ccc5c6ccnc(C)c6n(CCCc6ccccc6)c5c4)c23)cc(OC)c1OC | 24.9
Cc1nccc2c3ccc(OCCCCn4c5ccccc5c5ccnc(-c6ccccc6Cl)c54)cc3n(CCCc3ccccc3)c12 | 14.4

Problem: Any idea what its IC50 is? The compound is CCCCn1c2cc(OCCCCn3c4ccccc4c4ccnc(C)c43)ccc2c2ccnc(C)c21.Cl
Result: 15.7

Problem: IC50 lookup needed for CCn1c2cc(OCCCCCn3c4ccccc4c4ccnc(C)c43)ccc2c2ccnc(C)c21 , thanks.
Result: 112

====

- Test system: HepG2
- test.method.notes: Cytotoxicity against human HepG2 cells assessed as cell growth inhibition after 24 hrs by MTT assay
- Assay type: functional, cell-based
- measurement.conditions: HepG2, 24 h
measure: pIC50
Lab note — pIC50 values are minus log10 of concentrations in M.

Cc1nccc2c3ccc(OCCCCn4c5ccccc5c5ccnc(-c6cccnc6)c54)cc3n(CCCc3ccccc3)c12 | 4.97
Cc1nccc2c3ccc(OCCCCn4c5ccccc5c5ccnc(C(C)C)c54)cc3n(CCCc3ccccc3)c12 | 4.34
CCCCn1c2cc(OCCCCn3c4ccccc4c4ccncc43)ccc2c2ccnc(C)c21 | 4.53
Cc1nccc2c3ccc(OCCCCn4c5ccccc5c5ccncc54)cc3n(CCCc3ccccc3)c12.Cl | 5.01
CCCCn1c2cc(OCCCCCn3c4ccccc4c4ccncc43)ccc2c2ccnc(C)c21 | 4.19
Cc1nccc2c3ccccc3n(CCCCOc3ccc4c5ccnc(C)c5n(CCCc5ccccc5)c4c3)c12.Cl | 5.04

Shift focus to the following entry.
Problem: Would you mind telling me what pIC50 value was observed for Cc1nccc2c3ccc(OCCCCn4c5ccccc5c5ccnc(-c6cccs6)c54)cc3n(CCCc3ccccc3)c12.Cl ?
Result: 5.09

====

IC50 listing for selected compounds.
- Tested on: HepG2
- test.method.notes: Cytotoxicity against human HepG2 cells assessed as cell growth inhibition after 24 hrs by MTT assay
- Format: functional, cell-based
- measurement.conditions: HepG2, 24 h

Some compounds with recorded IC50:
CCn1c2cc(OCCCCCCn3c4ccccc4c4ccncc43)ccc2c2ccnc(C)c21 | > 100 µM
CCCCn1c2cc(OCCCCCn3c4ccccc4c4ccnc(C)c43)ccc2c2ccnc(C)c21 | > 100 µM

Next up:
Problem: Field request: IC50 | item: CCn1c2cc(OCCCCn3c4ccccc4c4ccncc43)ccc2c2ccnc(C)c21
Result: > 100 µM
